test system: HCT-116; assay: Induction of apoptosis in human HCT116 cells assessed as increase in caspase 9 mRNA expression at 100 nM after 6 hrs hrs by SYBR green dye-based qRT-PCR analysis relative to control; type: functional
Please use label 1 whenever fold change (FC) is not below 2, and label 0 whenever it is.

# check: fold change (FC) of "N=C(N)c1ccc(-c2ccc(-c3ccc(Cl)cc3)o2)o1" is greater than or equal to 2 label 1

# check: fold change (FC) of "COc1ccc2cc(-c3ccc(-c4ccc(C(=N)N)s4)s3)ccc2c1" is greater than or equal to 2 label 1

# check: fold change (FC) of "N=C(N)c1ccc(-c2ccc(-c3ccccc3)o2)o1" is greater than or equal to 2 label 1

# check: fold change (FC) of "N=C(N)c1ccc(-c2ccc(-c3ccc(Cl)cc3)s2)s1" is greater than or equal to 2 label 1

# check: fold change (FC) of "COc1cccc(-c2ccc(-c3ccc(C(=N)N)s3)s2)c1" is greater than or equal to 2 label 0

# check: fold change (FC) of "COc1ccc(-c2ccc(-c3ccc(C(=N)N)s3)s2)cc1" is greater than or equal to 2 label 1

# check: fold change (FC) of "N=C(N)c1ccc(-c2ccc(-c3ccc4ccccc4c3)s2)s1" is greater than or equal to 2 label 1

# check: fold change (FC) of "COc1cc(OC)cc(-c2ccc(-c3ccc(C(=N)N)o3)o2)c1" is greater than or equal to 2 label 0

# check: fold change (FC) of "O=c1[nH]cc(F)c(=O)[nH]1" is greater than or equal to 2 label 1

# check: fold change (FC) of "N=C(N)c1ccc(-c2ccc(-c3cc(Cl)cc(Cl)c3)o2)o1" is greater than or equal to 2 label 1

# check: fold change (FC) of "N=C(N)c1ccc(-c2ccc(-c3ccc(F)cc3)s2)s1" is greater than or equal to 2 label 1

###

assay: Haemolytic activity in human erythrocytes assessed as induction of hemolysis at 5 mM after 30 mins relative to H202; type: cell-based, Erythrocyte; conditions: read-out: Activity
metric-name: hemolysis at 0.5 h, 5000 µM (%)
Dear colleague, please return just the value in %, with no unit written.

Sample answers from the record:
molecular-string: O=C1O[C@H]([C@@H](O)CO)C(O)=C1O
hemolysis at 0.5 h, 5000 µM [%]: 8
--
molecular-string: N=C(N)c1ccc(-c2ccc(-c3ccc(F)cc3)s2)s1
hemolysis at 0.5 h, 5000 µM [%]: 59.7
--
molecular-string: N=C(N)c1ccc(-c2ccc(-c3ccc4ccccc4c3)s2)s1
hemolysis at 0.5 h, 5000 µM [%]: 13
--
molecular-string: COc1cccc(-c2ccc(-c3ccc(C(=N)N)s3)s2)c1
hemolysis at 0.5 h, 5000 µM [%]: 39
--
molecular-string: N=C(N)c1ccc(-c2ccc(-c3cc(Cl)cc(Cl)c3)s2)s1
hemolysis at 0.5 h, 5000 µM [%]: 6.7
--
molecular-string: N=C(N)c1ccc(-c2ccc(-c3ccccc3)s2)s1
hemolysis at 0.5 h, 5000 µM [%]: 56.7
--
molecular-string: N=C(N)c1ccc(-c2ccc(-c3ccc(Cl)cc3)o2)o1
hemolysis at 0.5 h, 5000 µM [%]: 70.7
--
molecular-string: N=C(N)c1ccc(-c2ccc(-c3ccc(Cl)cc3)s2)s1
hemolysis at 0.5 h, 5000 µM [%]: 49

Given the compound "COc1cc(OC)cc(-c2ccc(-c3ccc(C(=N)N)o3)o2)c1" , what is its reported hemolysis at 0.5 h, 5000 µM? 7.5

Given the compound "COc1ccc(-c2ccc(-c3ccc(C(=N)N)o3)o2)cc1" , what is its reported hemolysis at 0.5 h, 5000 µM? 36.3

Given the compound "N=C(N)c1ccc(-c2ccc(-c3ccccc3)o2)o1" , what is its reported hemolysis at 0.5 h, 5000 µM? 30.1

###

experiment: Antioxidant activity assessed as DPPH radical scavenging activity incubated in dark for 30 mins by spectrophotometric method relative to ascorbic acid; format: functional
# fold change (FC) per entry
Give the figure by itself; no unit, no explanation.

Sample answers from the record:
molecular-string: N=C(N)c1ccc(-c2ccc(-c3ccccc3)s2)s1
fold change (FC): 0.6
--
molecular-string: N=C(N)c1ccc(-c2ccc(-c3cc(Cl)cc(Cl)c3)s2)s1
fold change (FC): 0.3
--
molecular-string: COc1ccc(-c2ccc(-c3ccc(C(=N)N)o3)o2)cc1
fold change (FC): 0.7
--
molecular-string: N=C(N)c1ccc(-c2ccc(-c3ccc(F)cc3)s2)s1
fold change (FC): 0.5
--
molecular-string: COc1cc(OC)cc(-c2ccc(-c3ccc(C(=N)N)o3)o2)c1
fold change (FC): 0.3

Consider now this further compound.
Given the compound "N=C(N)c1ccc(-c2ccc(-c3ccc(Cl)cc3)o2)o1" , what is its reported fold change (FC)? 0.2

###

test system: MOLT-4; experiment: Antiproliferative activity against human MOLT4 cells assessed as growth inhibition after 48 hrs by sulforhodamine B assay; format: functional; conditions: MOLT-4, 48 h
metric-name: GI50 (nM)
Dear colleague, please return just the value in nM, with no unit written.

Sample answers from the record:
molecular-string: N=C(N)c1ccc(-c2ccc(-c3ccc(Cl)cc3)s2)s1
GI50 [nM]: 1780
//
molecular-string: N=C(N)c1ccc(-c2ccc(-c3ccc(F)cc3)s2)s1
GI50 [nM]: 1520
//
molecular-string: COc1ccc(-c2ccc(-c3ccc(C(=N)N)o3)o2)cc1
GI50 [nM]: 1200
//
molecular-string: N=C(N)c1ccc(-c2ccc(-c3cc(Cl)cc(Cl)c3)o2)o1
GI50 [nM]: 1690
//
molecular-string: N=C(N)c1ccc(-c2ccc(-c3cncc4ccccc34)s2)s1
GI50 [nM]: 1170
//
molecular-string: N=C(N)c1ccc(-c2ccc(-c3ccc(Cl)cc3)o2)o1
GI50 [nM]: 1660
//
molecular-string: N=C(N)c1ccc(-c2ccc(-c3ccc(F)cc3)o2)o1
GI50 [nM]: 1600
//
molecular-string: N=C(N)c1ccc(-c2ccc(-c3ccccc3)o2)o1
GI50 [nM]: 3310
//
molecular-string: COc1cc(OC)cc(-c2ccc(-c3ccc(C(=N)N)o3)o2)c1
GI50 [nM]: 2440
//
molecular-string: COc1ccc2cc(-c3ccc(-c4ccc(C(=N)N)s4)s3)ccc2c1
GI50 [nM]: 2170

Given the compound "N=C(N)c1ccc(-c2ccc(-c3cc(Cl)cc(Cl)c3)s2)s1" , what is its reported GI50? 1710

Given the compound "N=C(N)c1ccc(-c2ccc(-c3ccc4ccccc4c3)s2)s1" , what is its reported GI50? 1470

Given the compound "COc1cc(-c2ccc(-c3ccc(C(=N)N)s3)s2)cc(OC)c1OC" , what is its reported GI50? 2400

###

tested on: HOP-62; experiment: Antiproliferative activity against human HOP62 cells assessed as growth inhibition after 48 hrs by sulforhodamine B assay; type: functional; conditions: HOP-62, 48 h
metric-name: GI50

Given the molecule "N=C(N)c1ccc(-c2ccc(-c3ccc(Cl)cc3)o2)o1" , what is its reported GI50? 1650 nM

Given the molecule "N=C(N)c1ccc(-c2ccc(-c3cc(Cl)cc(Cl)c3)o2)o1" , what is its reported GI50? 1890 nM

Given the molecule "N=C(N)c1ccc(-c2ccc(-c3ccc(Cl)cc3)s2)s1" , what is its reported GI50? 1750 nM

Given the molecule "N=C(N)c1ccc(-c2ccc(-c3cc(Cl)cc(Cl)c3)s2)s1" , what is its reported GI50? 1760 nM

Given the molecule "N=C(N)c1ccc(-c2ccc(-c3ccc(F)cc3)o2)o1" , what is its reported GI50? 1600 nM

Given the molecule "COc1cc(OC)cc(-c2ccc(-c3ccc(C(=N)N)o3)o2)c1" , what is its reported GI50? 5650 nM

###

test system: A549; experiment: Antiproliferative activity against human A549/ATCC cells assessed as growth inhibition after 48 hrs by sulforhodamine B assay; format: functional; conditions: A549, 48 h
# GI50 per entry
Dear colleague, please return just the value in nM, with no unit written.

Given the compound "N=C(N)c1ccc(-c2ccc(-c3cncc4ccccc34)s2)s1" , what is its reported GI50? 1620

Given the compound "COc1ccc(-c2ccc(-c3ccc(C(=N)N)o3)o2)cc1" , what is its reported GI50? 1490

Given the compound "N=C(N)c1ccc(-c2ccc(-c3cc(Cl)cc(Cl)c3)o2)o1" , what is its reported GI50? 1950

Given the compound "N=C(N)c1ccc(-c2ccc(-c3ccc(Cl)cc3)o2)o1" , what is its reported GI50? 1980

Given the compound "COc1cc(-c2ccc(-c3ccc(C(=N)N)s3)s2)cc(OC)c1OC" , what is its reported GI50? 2140

Given the compound "N=C(N)c1ccc(-c2ccc(-c3ccc(F)cc3)s2)s1" , what is its reported GI50? 1930

###

tested on: A549; assay: Antiproliferative activity against human A549/ATCC cells assessed as growth inhibition after 48 hrs by sulforhodamine B assay; format: functional; conditions: A549, 48 h
So basically: is GI50 under 2 µM? Then Y. Not under? Then N.

molecular-string: N=C(N)c1ccc(-c2ccc(-c3ccc(F)cc3)o2)o1
label-class: Y

molecular-string: N=C(N)c1ccc(-c2ccc(-c3ccccc3)o2)o1
label-class: N

molecular-string: COc1ccc2cc(-c3ccc(-c4ccc(C(=N)N)s4)s3)ccc2c1
label-class: N

molecular-string: N=C(N)c1ccc(-c2ccc(-c3ccc(Cl)cc3)s2)s1
label-class: N

Is the reported GI50 for "COc1cc(OC)cc(-c2ccc(-c3ccc(C(=N)N)o3)o2)c1" strictly below 2 µM? N

Is the reported GI50 for "N=C(N)c1ccc(-c2ccc(-c3cc(Cl)cc(Cl)c3)s2)s1" strictly below 2 µM? N
